B1: library; numbered along this chain (parent)
chain: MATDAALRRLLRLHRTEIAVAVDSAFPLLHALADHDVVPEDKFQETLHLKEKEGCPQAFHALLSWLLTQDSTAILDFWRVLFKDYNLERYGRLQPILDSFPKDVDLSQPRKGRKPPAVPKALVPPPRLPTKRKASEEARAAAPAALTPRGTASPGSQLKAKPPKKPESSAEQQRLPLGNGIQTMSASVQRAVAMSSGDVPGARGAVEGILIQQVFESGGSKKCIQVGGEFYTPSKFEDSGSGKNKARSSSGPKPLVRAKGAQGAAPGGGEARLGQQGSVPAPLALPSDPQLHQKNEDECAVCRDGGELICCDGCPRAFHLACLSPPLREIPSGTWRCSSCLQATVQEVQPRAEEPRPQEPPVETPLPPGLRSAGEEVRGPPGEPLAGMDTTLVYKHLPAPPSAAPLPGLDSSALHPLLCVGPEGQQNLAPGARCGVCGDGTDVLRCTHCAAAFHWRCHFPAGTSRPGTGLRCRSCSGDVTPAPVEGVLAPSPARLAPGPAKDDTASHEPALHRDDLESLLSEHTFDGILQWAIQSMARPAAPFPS

variants of: B1; experiment: AIRE transcriptional activation functional score (insulin promoter-GFP; nonsense median 0, synonymous median 1) (normalised score); higher = higher AIRE activity (more reporter activation); details: with insulin promoter-GFP reporter in HEK293
Please go through the items and note down their AIRE transcriptional activation functional score.
One number for each entry.

The following variants each have a reported value; give each one's AIRE transcriptional activation functional score.
1. L397K
2. E40Q

1: 0.921; 2: 0.577
